The entries below come with measured protein stability index values attached.
B1: CLK3 (parent)
chain: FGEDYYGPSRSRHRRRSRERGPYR

Variants of: B1
MEASUREMENT_PROTOCOL: protein stability index of a GFP-peptide fusion (GPS, HEK-293T) (PSI 1-6); higher = more stable;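 also: lentivirally expressed fusions sorted by FACS into six bins by GFP to DsRed ratio, PSI derived from sequencing read proportions per bin multiplied by bin number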
EXPERIMENTAL_CONDITIONS: c terminus: a fixed tail appended
REPORTED_METRIC: protein stability index

> print(dat)
                   residue.sequence  result.number
 1   FGRDYYGPSRSRHRRRSRERGPYR [E3R]           3.46
 2  FGEDYYGPSRSRHRRRSRERGPAR [Y23A]           2.19
 3   FGEDQYGPSRSRHRRRSRERGPYR [Y5Q]            4.7
 4  FGEDYYGPSRSRHRRRSRSRGPYR [E19S]           3.65
 5  FGEDYYGPSRGRHRRRSRERGPYR [S11G]           2.58
 6   FGEFYYGPSRSRHRRRSRERGPYR [D4F]            3.2
 7   FGEDYYGLSRSRHRRRSRERGPYR [P8L]           1.51
 8  FGEDYYGPSRSRHLRRSRERGPYR [R14L]           2.27
 9  FGEDYYGPSRSRHRARSRERGPYR [R15A]           2.18
10   FGSDYYGPSRSRHRRRSRERGPYR [E3S]           1.73
11   FGEDHYGPSRSRHRRRSRERGPYR [Y5H]           4.64
12  FGEDYYGPSRSRHMRRSRERGPYR [R14M]           2.13
13  FGEDYYGPSRSWHRRRSRERGPYR [R12W]           2.44
14  FGEDYYGPSRSRHRRRSREWGPYR [R20W]           2.85
15  FGEDYYGPSRSRHRRRSRERGCYR [P22C]            2.8
16  FGEDYYGPSRSRHRRRSEERGPYR [R18E]            1.8
17  FGEDYYGPSRSRHRKRSRERGPYR [R15K]           3.27
18   FGEDYYGPLRSRHRRRSRERGPYR [S9L]           2.55
19  FGEDYYGPSRSRHRRRFRERGPYR [S17F]           3.51
20  FGEDYYGPSRSRHRRRCRERGPYR [S17C]           2.83
21  FGEDYYGPSRSRHRQRSRERGPYR [R15Q]           1.98
22  FGEDYYGPSRSRHRRMSRERGPYR [R16M]            1.9
23  FGEDYYGPSRSRHRRRSRERGPGR [Y23G]           2.43
24   FGEDYYKPSRSRHRRRSRERGPYR [G7K]           3.71
25   FGEDGYGPSRSRHRRRSRERGPYR [Y5G]              4
26  FGEDYYGPSRSRHRRRQRERGPYR [S17Q]           2.89
27  FGEDYYGPSRSRHRRRSRERGPYA [R24A]           2.02
28   FGEDYSGPSRSRHRRRSRERGPYR [Y6S]           4.96
29   QGEDYYGPSRSRHRRRSRERGPYR [F1Q]           5.13
30  FGEDYYGPSRSRHRRRSRNRGPYR [E19N]           3.95
31   FGEDEYGPSRSRHRRRSRERGPYR [Y5E]           4.86
32   FGPDYYGPSRSRHRRRSRERGPYR [E3P]           3.41
33   FGEWYYGPSRSRHRRRSRERGPYR [D4W]           2.16
34  FGEDYYGPSRSRHRPRSRERGPYR [R15P]           2.54
35   FGEYYYGPSRSRHRRRSRERGPYR [D4Y]           3.63
36  FGEDYYGPSRSRHRRRRRERGPYR [S17R]           4.26
37  FGEDYYGPSRSRHRRWSRERGPYR [R16W]           2.33
38   FNEDYYGPSRSRHRRRSRERGPYR [G2N]            4.4
39  FGEDYYGPSRSRHRMRSRERGPYR [R15M]           3.55
40  FGEDYYGPSRSRHRRRSRERGPYD [R24D]            1.9
41  FGEDYYGPSRSRHRRCSRERGPYR [R16C]           1.97
42  FGEDYYGPSRSRHRRFSRERGPYR [R16F]           1.64
43   FGEDYYCPSRSRHRRRSRERGPYR [G7C]           2.95
44   FGEDYNGPSRSRHRRRSRERGPYR [Y6N]           4.47
45  FGEDYYGPSRSRERRRSRERGPYR [H13E]           2.21
46   FCEDYYGPSRSRHRRRSRERGPYR [G2C]           2.52
47  FGEDYYGPSRSRHRRRSRDRGPYR [E19D]           3.87
48   FYEDYYGPSRSRHRRRSRERGPYR [G2Y]           4.01
49  FGEDYYGPSRSRHRRRSRERGPVR [Y23V]           3.15
50  FGEDYYGPSCSRHRRRSRERGPYR [R10C]           2.45
51  FGEDYYGPSRSRHRRRSRERGPKR [Y23K]            2.3
52   FGVDYYGPSRSRHRRRSRERGPYR [E3V]           4.08
53   FGEDYYGPGRSRHRRRSRERGPYR [S9G]           3.16
54   FGEDYYGPVRSRHRRRSRERGPYR [S9V]           2.38
55  FGEDYYGPSRSRHRRRSFERGPYR [R18F]           2.73
56  FGEDYYGPSRSRHGRRSRERGPYR [R14G]           2.62
57  FGEDYYGPSRSEHRRRSRERGPYR [R12E]           2.58
58  FGEDYYGPSRSRHRTRSRERGPYR [R15T]           1.91
59  FGEDYYGPSRSRHVRRSRERGPYR [R14V]           2.22
60  FGEDYYGPSRQRHRRRSRERGPYR [S11Q]           2.65
61  FGEDYYGPSRFRHRRRSRERGPYR [S11F]           2.76
62   FGLDYYGPSRSRHRRRSRERGPYR [E3L]           4.43
63  FGEDYYGPSRSRHDRRSRERGPYR [R14D]           2.31
64   FGESYYGPSRSRHRRRSRERGPYR [D4S]           2.21
65   FGEDYYIPSRSRHRRRSRERGPYR [G7I]           4.23
66  FGEDYYGPSRSRHRRVSRERGPYR [R16V]           2.23
67  FGEDYYGPSRSRHRRRYRERGPYR [S17Y]            3.4
68  FGEDYYGPSRSRHRRRSREAGPYR [R20A]           2.47
69  FGEDYYGPSRSRHRRRSREDGPYR [R20D]           2.56
70  FGEDYYGPSRSRHRRRSRERGDYR [P22D]            2.8
71   FGEDYYGPERSRHRRRSRERGPYR [S9E]           2.73
72  FGEDYYGPSRSRHSRRSRERGPYR [R14S]           2.19
73  FGEDYYGPSRSRHRRRSRWRGPYR [E19W]           4.71
74   FLEDYYGPSRSRHRRRSRERGPYR [G2L]           3.38
75   MGEDYYGPSRSRHRRRSRERGPYR [F1M]           4.92
76  FGEDYYGPSRSRHRRRSRERRPYR [G21R]            3.2
77  FGEDYYGPSRSRHRFRSRERGPYR [R15F]           1.85
78  FGEDYYGPSRSRHRRRTRERGPYR [S17T]           3.45
79   PGEDYYGPSRSRHRRRSRERGPYR [F1P]           4.87
80  FGEDYYGPSRSRHRRRSRESGPYR [R20S]           2.24
81  FGEDYYGPSQSRHRRRSRERGPYR [R10Q]            2.7
82  FGEDYYGPSRCRHRRRSRERGPYR [S11C]           2.95
83  FGEDYYGPSRSRHRRRSRYRGPYR [E19Y]           3.94
84   FGEDYYQPSRSRHRRRSRERGPYR [G7Q]           2.82
85  FGEDYYGPSRSRHRRRSRGRGPYR [E19G]           4.06
86  FGEDYYGPSRSRHRRASRERGPYR [R16A]           1.87
87  FGEDYYGPSRSRHRRRSRERGPYE [R24E]           2.32
88  FGEDYYGPSRSRHRRRSRERGPLR [Y23L]           2.16
89   FGEDYYTPSRSRHRRRSRERGPYR [G7T]           3.53
90   FGEDAYGPSRSRHRRRSRERGPYR [Y5A]           3.53
91  FGEDYYGPSRSRHYRRSRERGPYR [R14Y]           2.02
